# credit: patent US20200017496A1

System: Escherichia coli (ECO) isolates
Test: MIC of compounds alone and combined with antibacterials, broth microdilution (CLSI)
Assay type: cell-based
Settings: ECO 5302; AF1 @ 4 μg/mL
attributeMeasured: MIC ATB in combination

Field: example entries. Status: answers known.
CC(C)(O/N=C(\C(=O)N[C@@H]1C(=O)N2C(C(=O)[O-])=C(C[n+]3ccccc3)CS[C@H]12)c1csc(N)n1)C(=O)O ... <=0.25 μg/mL
CO/N=C(\C(=O)N[C@@H]1C(=O)N2C(C(=O)O)=C(COC(N)=O)CS[C@H]12)c1ccco1 ... 4 µg/mL
C=CC1=C(C(=O)O)N2C(=O)[C@@H](NC(=O)/C(=N\OCC(=O)O)c3csc(N)n3)[C@H]2SC1 ... <=0.25 μg/mL
CC1(C)S[C@@H]2[C@H](NC(=O)[C@H](N)c3ccc(O)cc3)C(=O)N2[C@H]1C(=O)O ... 256 µg/mL

# input Recall the reported MIC ATB in combination of COCC1=C(C(=O)O)N2C(=O)[C@@H](NC(=O)/C(=N\OC)c3csc(N)n3)[C@H]2SC1 when tested on Escherichia coli (ECO) isolates.
# output <=0.25 μg/mL

# input Recall the reported MIC ATB in combination of C=CC1=C(C(=O)O)N2C(=O)[C@@H](NC(=O)/C(=N\O)c3csc(N)n3)[C@H]2SC1 when tested on Escherichia coli (ECO) isolates.
# output <=0.25 μg/mL

###

System: Escherichia coli (ECO) isolates
Experiment: MIC of compounds alone and combined with antibacterials, broth microdilution (CLSI)
Assay type: cell-based
Conditions: ECO 131119; AF1 @ 4 μg/mL
attributeMeasured: MIC ATB in combination

Field: example entries. Status: answers known.
C=CC1=C(C(=O)O)N2C(=O)[C@@H](NC(=O)/C(=N\OCC(=O)O)c3csc(N)n3)[C@H]2SC1 ... <=0.25 μg/mL
CC1(C)S[C@@H]2[C@H](NC(=O)[C@H](N)c3ccc(O)cc3)C(=O)N2[C@H]1C(=O)O ... 16 µg/mL
COCC1=C(C(=O)O)N2C(=O)[C@@H](NC(=O)/C(=N\OC)c3csc(N)n3)[C@H]2SC1 ... <=0.25 μg/mL
CC(C)(O/N=C(\C(=O)N[C@@H]1C(=O)N2C(C(=O)[O-])=C(C[n+]3ccccc3)CS[C@H]12)c1csc(N)n1)C(=O)O ... <=0.25 μg/mL
CO/N=C(\C(=O)N[C@@H]1C(=O)N2C(C(=O)O)=C(COC(N)=O)CS[C@H]12)c1ccco1 ... 4 µg/mL

Okay, now this compound:
# input Write down MIC ATB in combination measured for item C=CC1=C(C(=O)O)N2C(=O)[C@@H](NC(=O)/C(=N\O)c3csc(N)n3)[C@H]2SC1
# output <=0.25 μg/mL

###

Assay: Hydrolysis kinetics in buffers at room temperature by 19F-NMR, 1 mg/ml (Method 9)
Assay type: physicochemical
Details: Citrate 10 mM pH 5.0
Rule: Hydrolysis at 1 mg/ml at room Temperature (NMR) T10 (10% degradation time) under 200 min gives FALSE, otherwise TRUE.

COCCCC(C)(C)OC(=O)C(F)(F)ON1C(=O)N2C[C@H]1CC[C@H]2C(N)=O [Example 14] ... FALSE
COCC(COC)OC(=O)C(F)(F)ON1C(=O)N2C[C@H]1CC[C@H]2C(N)=O [Example 13] ... FALSE
COCC1(OC(=O)C(F)(F)ON2C(=O)N3C[C@H]2CC[C@H]3C(N)=O)CCOCC1 [Example 11] ... TRUE
COCCOCC(C)(C)OC(=O)C(F)(F)ON1C(=O)N2C[C@H]1CC[C@H]2C(N)=O [Example 9] ... FALSE
CC1(OC(=O)C(F)(F)ON2C(=O)N3C[C@H]2CC[C@H]3C(N)=O)CCOCC1 [Example 8] ... TRUE

# input // inclusive: Hydrolysis at 1 mg/ml at room Temperature (NMR) T10 (10% degradation time) at least 200 min? input: COCC(C)(COC)OC(=O)C(F)(F)ON1C(=O)N2C[C@H]1CC[C@H]2C(N)=O [Example 10]
# output TRUE

# input // inclusive: Hydrolysis at 1 mg/ml at room Temperature (NMR) T10 (10% degradation time) at least 200 min? input: CCOC(=O)C(F)(F)ON1C(=O)N2C[C@H]1CC[C@H]2C(N)=O [AF1-Et]
# output FALSE

# input // inclusive: Hydrolysis at 1 mg/ml at room Temperature (NMR) T10 (10% degradation time) at least 200 min? input: NC(=O)[C@@H]1CC[C@@H]2CN1C(=O)N2OC(F)(F)C(=O)OC1CCOCC1 [Example 12]
# output FALSE

# input // inclusive: Hydrolysis at 1 mg/ml at room Temperature (NMR) T10 (10% degradation time) at least 200 min? input: CCCN(CCC)[C@H]1CC[C@H](OC(=O)C(F)(F)ON2C(=O)N3C[C@H]2CC[C@H]3C(N)=O)CC1 [Example 15]
# output FALSE

# input // inclusive: Hydrolysis at 1 mg/ml at room Temperature (NMR) T10 (10% degradation time) at least 200 min? input: COCC(C)(C)OC(=O)C(F)(F)ON1C(=O)N2C[C@H]1CC[C@H]2C(N)=O [Example 7]
# output TRUE

###

System: Escherichia coli (ECO) isolates
Test: MIC of compounds alone and combined with antibacterials, broth microdilution (CLSI)
Format: cell-based
Details: ECO UFR211; AF1 @ 4 μg/mL
attributeMeasured: MIC ATB in combination

Field: example entries. Status: answers known.
CO/N=C(\C(=O)N[C@@H]1C(=O)N2C(C(=O)O)=C(COC(N)=O)CS[C@H]12)c1ccco1 ... 8 µg/mL
CC(C)(O/N=C(\C(=O)N[C@@H]1C(=O)N2C(C(=O)[O-])=C(C[n+]3ccccc3)CS[C@H]12)c1csc(N)n1)C(=O)O ... 0.5 µg/mL
C=CC1=C(C(=O)O)N2C(=O)[C@@H](NC(=O)/C(=N\OCC(=O)O)c3csc(N)n3)[C@H]2SC1 ... <=0.25 μg/mL
COCC1=C(C(=O)O)N2C(=O)[C@@H](NC(=O)/C(=N\OC)c3csc(N)n3)[C@H]2SC1 ... <=0.25 μg/mL

Okay, now this compound:
# input Write down MIC ATB in combination measured for item C=CC1=C(C(=O)O)N2C(=O)[C@@H](NC(=O)/C(=N\O)c3csc(N)n3)[C@H]2SC1
# output <=0.25 μg/mL

###

Test system: Escherichia coli (ECO) isolates
Test: MIC of compounds alone and combined with antibacterials, broth microdilution (CLSI)
Assay type: cell-based
Details: ECO 200159; AF1 @ 4 μg/mL
attributeMeasured: MIC ATB in combination

C=CC1=C(C(=O)O)N2C(=O)[C@@H](NC(=O)/C(=N\O)c3csc(N)n3)[C@H]2SC1 ... <=0.25 μg/mL
C=CC1=C(C(=O)O)N2C(=O)[C@@H](NC(=O)/C(=N\OCC(=O)O)c3csc(N)n3)[C@H]2SC1 ... <=0.25 μg/mL
COCC1=C(C(=O)O)N2C(=O)[C@@H](NC(=O)/C(=N\OC)c3csc(N)n3)[C@H]2SC1 ... <=0.25 μg/mL
CO/N=C(\C(=O)N[C@@H]1C(=O)N2C(C(=O)O)=C(COC(N)=O)CS[C@H]12)c1ccco1 ... 2 µg/mL

Okay, now this compound:
# input Write down MIC ATB in combination measured for item CC(C)(O/N=C(\C(=O)N[C@@H]1C(=O)N2C(C(=O)[O-])=C(C[n+]3ccccc3)CS[C@H]12)c1csc(N)n1)C(=O)O
# output <=0.25 μg/mL

###

Tested on: Morganella morganii (MMO) isolates
Assay: MIC of compounds alone and combined with antibacterials, broth microdilution (CLSI)
Format: cell-based
Conditions: MMO UFR244; AF1 @ 4 μg/mL
Below, each entry is listed with its recorded MIC ATB in combination.
Number only, in mg/L; omit the unit.

# input Write down MIC ATB in combination measured for item CC1(C)S[C@@H]2[C@H](NC(=O)[C@H](N)c3ccc(O)cc3)C(=O)N2[C@H]1C(=O)O [AMX, Amoxicillin]
# output 64

# input Write down MIC ATB in combination measured for item C=CC1=C(C(=O)O)N2C(=O)[C@@H](NC(=O)/C(=N\O)c3csc(N)n3)[C@H]2SC1 [CDR, Cefdinir]
# output 2

# input Write down MIC ATB in combination measured for item CO/N=C(\C(=O)N[C@@H]1C(=O)N2C(C(=O)O)=C(COC(N)=O)CS[C@H]12)c1ccco1 [FUR, Cefuroxime]
# output 16

###

Test system: Enterobacter cloacae (ECL) isolates
Test: MIC of compounds alone and combined with antibacterials, broth microdilution (CLSI)
Format: cell-based
Settings: ECL UFR70; AF1 @ 4 μg/mL
Description: Method 2: MIC of Compounds Alone and Combined with Antibacterials Against Bacterial Isolates. Compounds of the present invention were assessed against genotyped bacterial strains (Table 3, 4) alone or in combination with an antibacterial (Table 2). […] The MIC of the compounds was defined as the lowest concentration of said compounds that prevented bacterial growth as read by visual inspection. […]
Lab note - cut at 20 µg/mL for MIC ATB in combination: Satisfied if strictly below, Not satisfied if not.

# input Here's an entry: C=CC1=C(C(=O)O)N2C(=O)[C@@H](NC(=O)/C(=N\O)c3csc(N)n3)[C@H]2SC1 [CDR, Cefdinir] . Is its MIC ATB in combination below 20 µg/mL?
# output Satisfied

# input Here's an entry: CO/N=C(\C(=O)N[C@@H]1C(=O)N2C(C(=O)O)=C(COC(N)=O)CS[C@H]12)c1ccco1 [FUR, Cefuroxime] . Is its MIC ATB in combination below 20 µg/mL?
# output Not satisfied

# input Here's an entry: C=CC1=C(C(=O)O)N2C(=O)[C@@H](NC(=O)/C(=N\OCC(=O)O)c3csc(N)n3)[C@H]2SC1 [FIX, Cefixime] . Is its MIC ATB in combination below 20 µg/mL?
# output Satisfied

# input Here's an entry: CC(C)(O/N=C(\C(=O)N[C@@H]1C(=O)N2C(C(=O)[O-])=C(C[n+]3ccccc3)CS[C@H]12)c1csc(N)n1)C(=O)O [CAZ, Ceftazidime] . Is its MIC ATB in combination below 20 µg/mL?
# output Satisfied

# input Here's an entry: COCC1=C(C(=O)O)N2C(=O)[C@@H](NC(=O)/C(=N\OC)c3csc(N)n3)[C@H]2SC1 [POD, Cefpodoxime] . Is its MIC ATB in combination below 20 µg/mL?
# output Satisfied

# input Here's an entry: CC1(C)S[C@@H]2[C@H](NC(=O)[C@H](N)c3ccc(O)cc3)C(=O)N2[C@H]1C(=O)O [AMX, Amoxicillin] . Is its MIC ATB in combination below 20 µg/mL?
# output Not satisfied
